Kind request: treat 200 °C as inclusive, so melting point at 200 °C or higher is Condition met, anything lower is Condition not met.

CCc1cccc(C)c1CNc1nc(C(=O)O)cn2c(C)c(C)nc12
Condition met
CCOC(=O)c1cn2c(C)c(C)nc2c(NCc2c(C)cccc2CC)n1
Condition not met
CCc1cccc(C)c1CNc1nc(CO)cn2c(C)c(C)nc12
Condition not met
CCc1cccc(C)c1CNc1nc(Br)cn2c(C)c(C)nc12.O=C(O)C(=O)O
Condition not met

Here is the next item to consider.
Hello, I need to know if CCc1cccc(C)c1CNc1nc(COC)cn2c(C)c(C)nc12.Cl has measured melting point not below 200 °C. Thanks! Condition not met
